src = the supplement of paper PMC6522484

System: SW480
Assay: TCF/Wnt firefly luciferase reporter signal relative to plate median (fraction of plate median); higher = higher Wnt reporter signal
Details: 5 µM; treatment time 24 h; reporter: 7TFP
Consider the following compounds and their measured TCF/Wnt firefly luciferase reporter signal readings.
Endpoint Name: TCF/Wnt firefly luciferase reporter signal

Compound	Number
Cc1cc(O)cc2oc(=O)c3c(O)cc(O)cc3c12	0.992
[N-]=[N+]=CC(=O)OC[C@H](N)C(=O)O	0.989
Nc1ncn[nH]1	0.978
CC(=O)Nc1cc([As](=O)(O)O)ccc1O	0.973
O=C1C(Cl)=C(Cl)C(=O)C(Cl)=C1Cl	1.02
NCC(CC(=O)O)c1ccc(Cl)cc1 (configuration not stated)	1.02
CC(CC(C(N)=O)(c1ccccc1)c1ccccc1)N(C)C (configuration not stated)	1.01

====

System: SW480
Assay: cell viability (CellTiter-Glo) relative to plate median (fraction of plate median); higher = more viable cells
Conditions: 5 µM; treatment time 24 h; reporter: 7TFP
Endpoint Name: cell viability

Compound	Result
Nc1ccncc1	1
CCCCCCCCCCCCOC(=O)[C@H]1OC(=O)[C@H](O)[C@H]1C(=O)OO	0.995
Cc1ccc(O)cc1.Cc1cccc(O)c1.Cc1ccccc1O	1.01
CCCC(C)(COC(N)=O)COC(=O)NC(C)C (configuration not stated)	0.97
CC(C)=CC1C(C(=O)OCc2cccc(Oc3ccccc3)c2)C1(C)C (configuration not stated)	0.985
C[C@]12CC[C@H]3[C@@H](CCC4=CC(=O)CC[C@@]43C)[C@@H]1CC[C@@H]2O	1.04
C[C@]12CCC3C(CC[C@H]4C[C@H](OS(=O)(=O)O)CC[C@]34C)C1CCC2=O (some centres not stated)	1.04
O=C1c2ccccc2-c2cccc3cccc1c23	0.991
CC(=O)O[C@@H]1C[C@@]2(C)[C@H](c3ccoc3)C[C@H]3O[C@]32[C@]2(C)C(=O)C(O)=C3C(C)(C)C(=O)C=C[C@]3(C)[C@@H]12	1.09
O=C([O-])Cc1ccccc1.[Na+]	0.971
CCN1C[C@]2(COC)[C@H](O)C[C@H](OC)[C@@]34[C@@H]5C[C@@]6(O)[C@H](OC(=O)c7ccccc7)[C@@H]5[C@@](OC(C)=O)([C@@H]([C@H](OC)[C@H]23)[C@@H]14)[C@@H](O)[C@@H]6OC	1.02
CC(=O)O[C@H]1[C@H]2[C@@H](OC(=O)Cc3ccccc3)[C@@H](C)C[C@]2(OC(C)=O)C(=O)/C(C)=C/[C@@H]2[C@H](CC[C@@]13CO3)C2(C)C	1.06
CN1CCc2cc3c(cc2C1O)OCO3 (configuration not stated)	0.995
COc1ccc(O)c2c(=O)c3c(OC)cc4c(c3oc12)C1C=COC1O4 (configuration not stated)	1.02
NC(=O)C[S+]([O-])C(c1ccccc1)c1ccccc1 (configuration not stated)	1.02
CNNC	0.945
CC(C)(C)NCC(O)c1ccccc1Cl (configuration not stated)	1.04

====

Tested on: SW480
Experiment: cell viability (CellTiter-Glo) relative to plate median (fraction of plate median); higher = more viable cells
Details: 5 µM; treatment time 24 h; reporter: 7TFP

Compound	cell viability
CC[C@@]1(O)C[C@H](O[C@H]2C[C@H](N(C)C)[C@H](O)[C@H](C)O2)c2c(cc3c(c2O)C(=O)c2c(O)ccc(O)c2C3=O)[C@H]1C(=O)OC	1.05
COc1cc([C@@H]2c3cc4c(cc3[C@H](OC(C)=O)[C@H]3COC(=O)[C@H]23)OCO4)cc(OC)c1OC	1.21
COc1cc2occc2c2oc(=O)ccc12	0.95
COc1c2c(c(CC=C(C)C)c3oc(=O)c(-c4ccc(O)cc4)c(O)c13)OC(C)(C)C=C2	1.01
NC(=O)Cc1ccccc1 [Phenylacetamide]	1.01
O[C@@H]1C[C@H]2CCC[C@@H](C1)N2Cc1ccccc1	0.949
C=C[C@@H]1C2=CCOC(=O)C2=CO[C@H]1O[C@@H]1O[C@H](CO)[C@@H](O)[C@H](O)[C@H]1O	1.03
CC(=O)O[C@H]1C[C@H](O[C@H]2[C@@H](O)C[C@H](O[C@H]3[C@@H](O)C[C@H](O[C@H]4CC[C@@]5(C)[C@H](CC[C@@H]6[C@@H]5C[C@@H](O)[C@]5(C)[C@@H](C7=CC(=O)OC7)CC[C@]65O)C4)O[C@@H]3C)O[C@@H]2C)O[C@H](C)[C@H]1O[C@@H]1O[C@H](CO)[C@@H](O)[C@H](O)[C@H]1O	0.851
[N-]=[N+]=CC(=O)OC[C@H](N)C(=O)O	1.07
CC1(C)C2CC(=O)[C@]3(C)C(CC[C@@]4(C)[C@H](c5ccoc5)OC(=O)[C@H]5O[C@]543)[C@@]2(C)C(=O)C[C@H]1O (stereo partly specified)	1.01
NCCc1cc(O)c(O)cc1O	0.983

====

Test system: HCT116
Experiment: cell viability (CellTiter-Glo) relative to plate median (fraction of plate median); higher = more viable cells
Settings: 5 µM; treatment time 24 h; reporter: TCF4/Wnt
Threshold-based label: cell viability under 1 gives class 1, cell viability not under 1 gives class 0.

Compound	Category
C[C@@H]1C[C@H](C)C[C@H](C)[C@@H](O)CC(=O)O[C@H]([C@@H]2CCC[C@H]2C(=O)O)C/C=C/C=C(/C#N)[C@H](O)[C@@H](C)C1 [Borrelidin]	class 1
COc1cccc2c1cc([N+](=O)[O-])c1c(C(=O)O)cc3c(c12)OCO3	class 0
O=C1C=C2C(=CCOC2O)O1 (configuration not stated)	class 1
OCC(O)Cc1ccc2c(c1)OCO2 (configuration not stated)	class 0
COP(=O)(OC)OC=C(Cl)Cl	class 1
CN1C[C@H](CNC(=O)OCc2ccccc2)C[C@@H]2c3cccc4c3c(cn4C)C[C@H]21	class 0
N#C/C(=C\c1ccc(O)cc1)C(=O)O [alpha-CYANO-4-HYDROXYCINNAMIC ACID]	class 0
CC1=CCCC2C1(C)CCC(C)C2(C)CC/C(C)=C/Cn1c[n+](C)c2c(N)ncnc21 (configuration not stated) [AGELASINE (stereochemistry of diterpene unknown)]	class 0
CC[C@@]1(O)C[C@H](O[C@H]2C[C@H](N(C)C)[C@H](O)[C@H](C)O2)c2c(cc3c(c2O)C(=O)c2c(O)ccc(O)c2C3=O)[C@H]1C(=O)OC	class 1

====

Tested on: SW480
Test: TCF/Wnt firefly luciferase reporter signal relative to plate median (fraction of plate median); higher = higher Wnt reporter signal
Conditions: 5 µM; treatment time 24 h; reporter: 7TFP
Endpoint Name: TCF/Wnt firefly luciferase reporter signal

Compound	Result
C[C@@H]1CC[C@H]2[C@@H](C)C(=O)O[C@@H]3O[C@@]4(C)CC[C@@H]1[C@]32OO4	0.984
C=CC[C@]1(O)CC[C@H]2[C@@H]3CCC4=CC(=O)CCC4=C3C=C[C@@]21C	0.988
CCn1cc(C(=O)O)c(=O)c2cc3c(cc21)OCO3	1
CCCC(C)(COC(N)=O)COC(=O)NC(C)C (stereo not drawn)	0.992
C=CCc1ccc(OC)cc1	1.02
CON1C(=O)[C@H]2NC(=O)[C@]13Oc1cc(O)c(Cl)cc1[C@@H]3SS2	1
CC(NC(C)(C)C)C(=O)c1cccc(Cl)c1 (stereo not drawn)	1.02
OCC(O)Cc1ccc2c(c1)OCO2 (stereo not drawn)	0.985
CC(CCc1ccccc1)NC(C)C(O)c1ccc(O)cc1 (stereo not drawn)	1.12
COc1cc2ccc(=O)oc2c2ccoc12	0.996
CC1CC(Cl)CCC1C(=O)OC(C)(C)C (stereo not drawn)	0.989
C=C(C)c1cc2cc(C(C)=O)c(O)cc2o1	1.12
COC1CC(OC2CCC3(C)C(CCC4C3CCC3(C)C(C5=CC(=O)OC5)CCC43O)C2)OC(C)C1OC1OC(COC2OC(CO)C(O)C(O)C2O)C(O)C(O)C1O (stereo not drawn)	1.03

====

Tested on: SW480
Experiment: TCF/Wnt firefly luciferase reporter signal relative to plate median (fraction of plate median); higher = higher Wnt reporter signal
Settings: 5 µM; treatment time 24 h; reporter: 7TFP
Consider the following compounds and their measured TCF/Wnt firefly luciferase reporter signal readings.
Endpoint Name: TCF/Wnt firefly luciferase reporter signal

Smiles Record	Number
COc1cc2c(c3oc4cccc(O)c4c(=O)c13)[C@@H]1C=CO[C@@H]1O2	0.902
COc1cccc(C=O)c1OC	0.914
CC(C)=CCC[C@]1(C)C=Cc2c(O)c3c(c(CC=C(C)C)c2O1)O[C@]12C(=C[C@@H]4C[C@H]1C(C)(C)O[C@@]2(C/C=C(/C)C(N)=O)C4=O)C3=O	0.895

====

Tested on: HCT116
Experiment: cell viability (CellTiter-Glo) relative to plate median (fraction of plate median); higher = more viable cells
Settings: 5 µM; treatment time 24 h; reporter: TCF4/Wnt
Endpoint Name: cell viability

Compound	Number
C=C(C)[C@H]1CN[C@H](C(=O)O)[C@H]1CC(=O)O	1.01
CCN1C[C@]2(OC(=O)c3ccccc3NC(C)=O)CC[C@H](OC)[C@@]34[C@@H]2C[C@@H]([C@@H]13)[C@@]1(O)C[C@H](OC)[C@H]2C[C@@H]4[C@]1(O)[C@H]2OC	0.988
COc1ccc(CCN2CCC(Nc3nc4ccccc4n3Cc3ccc(F)cc3)CC2)cc1	0.982
O=C1CC[C@@]2(O)[C@H]3Cc4ccc(O)c5c4[C@@]2(CCN3CC2CC2)[C@H]1O5	0.914
COc1cc2c(cc1OC)[C@@H]1C(=O)c3ccc4c(c3O[C@@H]1CO2)CC(C(C)C)O4 (some centres undefined)	0.685
NC(=O)c1ccc(N)nc1	1.1
c1ccc2nc(N3CCNCC3)ccc2c1	1.02
CC(=O)O[C@H]1C[C@H](O[C@H]2[C@@H](O)C[C@H](O[C@H]3[C@@H](O)C[C@H](O[C@H]4CC[C@@]5(C)[C@H](CC[C@@H]6[C@@H]5C[C@@H](O)[C@]5(C)[C@@H](C7=CC(=O)OC7)CC[C@]65O)C4)O[C@@H]3C)O[C@@H]2C)O[C@H](C)[C@H]1O[C@@H]1O[C@H](CO)[C@@H](O)[C@H](O)[C@H]1O	0.636
N#Cc1nn(-c2c(Cl)cc(C(F)(F)F)cc2Cl)c(N)c1[S+]([O-])C(F)(F)F (centres undefined)	1.04
COc1cc2c(cc1OC)[C@H](C)NCC2	0.96
C[C@@H]1CC[C@@]2(OC1)O[C@H]1[C@@H](O)[C@H]3[C@@H]4CC[C@H]5C[C@@H](O[C@@H]6O[C@H](CO)[C@H](O[C@@H]7O[C@H](CO)[C@@H](O)[C@H](O[C@@H]8OC[C@@H](O)[C@H](O)[C@H]8O)[C@H]7O[C@@H]7O[C@H](CO)[C@H](O)[C@H](O[C@@H]8O[C@H](CO)[C@@H](O)[C@H](O)[C@H]8O)[C@H]7O)[C@H](O)[C@H]6O)[C@H](O)C[C@]5(C)[C@H]4CC[C@]3(C)[C@H]1[C@@H]2C	1.06
COC1CC(OC2CCC3(C)C(CCC4C3CCC3(C)C(C5=CC(=O)OC5)CCC43O)C2)OC(C)C1OC1OC(COC2OC(CO)C(O)C(O)C2O)C(O)C(O)C1O (centres undefined)	0.969
OC1CCCCC1N1CCC(c2ccccc2)CC1 (centres undefined)	0.922
CC[C@H]1CN2CC[C@H]1C[C@@H]2[C@@H](O)c1ccnc2ccc(OC)cc12	1.07
COc1ccc(OC)c(C(O)C(C)N)c1 (centres undefined)	0.974
CCCCCCCCCCCCOC(=O)[C@H]1OC(=O)[C@H](O)[C@H]1C(=O)OO	1.02
O=C1C=CC(=O)c2c(O)cccc21	0.972
Cc1[nH]c2ccccc2c1CN(C)C	1.18
C=CCc1ccc2c(c1)OCO2	0.898
C=C(C)[C@@H]1CC[C@]2(C(=O)O[C@@H]3O[C@H](CO[C@@H]4O[C@H](CO)[C@@H](O[C@@H]5O[C@@H](C)[C@H](O)[C@@H](O)[C@H]5O)[C@H](O)[C@H]4O)[C@@H](O)[C@H](O)[C@H]3O)CC[C@]3(C)[C@H](C[C@H]4OC(=O)C[C@@H](O)[C@]5(C)[C@@H]4[C@@]3(C)CC[C@H]5C(=C)C)[C@@H]12 [Chiisanoside (5)]	0.958
CCCN1C[C@H](CSC)C[C@@H]2c3cccc4[nH]cc(c34)C[C@H]21	0.986
Nc1ccncc1	1.07
C[C@]12C=CC(=O)C=C1CC[C@@H]1[C@@H]2CC[C@]2(C)C(=O)CC[C@@H]12	1.09
NCC(CC(=O)O)c1ccc(Cl)cc1 (centres undefined)	0.998
CC(C)(C)NCC(O)c1cc(Cl)c(N)c(Cl)c1 (centres undefined)	1.03
CSc1nc(NC(C)C)nc(NC(C)C)n1	0.92
N[C@@H](Cc1ccc(N(CCCl)CCCl)cc1)C(=O)O	1.02
CC(=O)O[C@@H]1CC2C(C)(C)[C@H](O)C=C[C@]2(C)C2CC[C@]3(C)C(=CC(=O)O[C@H]3c3ccoc3)[C@@]21C (stereo partly drawn) [3-alpha-HYDROXYDEOXYGEDININ]	1.11
CCCCCCCCC(=O)NCc1ccc(O)c(OC)c1	0.972
